Source listed as patent US11371056B2.

system: Pseudomonas fluorescens HPPD polypeptide (wild-type and mutants); assay: Coupled HPPD activity assay: turnover and residual turnover in crude HPPD polypeptide extracts with and without Cmpd. 1; format: biochemical; settings: 100 μM Cmpd. 1, normalised to turnover without inhibitor
readout_type: Residual turnover [%] (%)
The figure you give is taken to be in %; do not add the unit.

# annotated cases, reported Residual turnover [%] shown
molecule | unit_tag | Residual turnover [%]
SEQ ID NO:55 (protein, mutant HPPD polypeptide) MADLYENPMGLMGFEFIEFASPTPGTLEPIFEIMGFTKVATHRSKNVHLYRQGEINLILNNEPNSIASYFAAEHGPSVCGMAFRVKDSQKAYNRALELGAQPIHIDTGPMELNLPAIKGIGGAPLYLIDRFGEGSSIYDIDFVYLEGVERNPVGAGLKVIDHLTHNVYRGRMVYWANFYEKLFNFREARYFDIKGEYTGLTSKAMSAPDGMIRIPLNEESSKGAGQIEEFLMQFNGEGIQHVAFLTDDLVKTWDALKKIGMRFLTAPGDEYYEMLEGRLPDHGEPVDQLQARGILLDGSSVEGDKRLLLQIFSEKLMGPVFFEFIQRKGDDGFGPHSFKVLFESMERDQVRRGVLTAD | % | 58
SEQ ID NO:8 (protein, mutant HPPD polypeptide) MADLYENPMGLMGFEFIEFASPTPGTLEPIFEIMGFTKVATHRSKNVHLYRQGEINLILNNEPNSIASYFAAEHGPSVCGMAFRVKDSQKAYNRALELGAQPIHIDTGPMELNLPAIKGIGGAPLYLIDRFGEGSSIYDIDFVYLEGVERNPVGAGLKVIDHLTHNVYRGRMVYWANFYEKLFNFREARYFDIKGEYTGLTSKAMSAPDGMIRIPLNEESSKGAGQIEEFLMQFNGEGIQHVAFLTDDLVKTWDALKKIGMRFLTAPGDEYYEMLEGRLPDHGEPVDQLQARGILLDGSSVEGDKRLLLQIFSEQLMGPVFFEFIQRKGDDGFGPDSFKVLFESIERDQVRRGVLTAD | % | 66
SEQ ID NO:41 (protein, mutant HPPD polypeptide) MADLYENPMGLMGFEFIEFASPTPGTLEPIFEIMGFTKVATHRSKNVHLYRQGEINLILNNEPNSIASYFAAEHGPSVCGMAFRVKDSQKAYNRALELGAQPIHIDTGPMELNLPAIKGIGGAPLYLIDRFGEGSSIYDIDFVYLEGVERNPVGAGLKVIDHLTHNVYRGRMVYWANFYEKLFNFREARYFDIKGEYTGLTSKAMSAPDGMIKIPLNEESSKGAGQIEEFLMQFNGEGIQHVAFLTDDLVKTWDALKKIGMRFMTAPGDEYYEMLEGRLPDHGEPVDQLQARGILLDGSSVEGDKRLLLQIFSERLMGPVFFEFIQRKGDDGFGPDSFKVLFESMERDQVRRGVLTAD | % | 43

With those in mind, consider the next molecule.
// query Note down Residual turnover [%] recorded for SEQ ID NO:35 (protein, mutant HPPD polypeptide) MADLYENPMGLMGFEFIEFASPTPGTLEPIFEIMGFTKVATHRSKNVHLYRQGEINLILNNEPNSIASYFAAEHGPSVCGMAFRVKDSQKAYNRALELGAQPIHIDTGPMELNLPAIKGIGGAPLYLIDRFGEGSSIYDIDFVYLEGVERNPVGAGLKVIDHLTHNVYRGRMVYWANFYEKLFNFREARYFDIKGEYTGLTSKAMSAPDGMIRIPLNEESSKGAGQIEEFLMQFNGEGIQHVAFLTDDLVKTWDALKKIGMRFMTAPGDEYYEMLEGRLPDHGEPVDQLQARGILLDGSSVEGDKRLLLQIFSEKLMGPVFFEFIQRKGDDGFGPHSFKVLFEQMERDQVRRGVLTAD
// result 59
